Tested on: SLA-1*07:02
assay.info: Peptide-MHC class I complex stability, scintillation proximity assay (SPA)
Design: species or system pig
test.conditions: biotinylated recombinant SLA heavy chain, 125I-β2m, excess unlabeled β2m, read every 40 min, number only if t1/2 ≥ 0.5 h, '-' = not stably binding
parameter: Binder (t1/2 ≥ 0.5 h): half-life of peptide-SLA-1*07:02 complex

query_sequence="VLGYITMAY [IDO125, porcine IDO-derived 9-11mer peptide]" recorded_measurement="1.0 h"
query_sequence="LPRNIAIPY [IDO70, porcine IDO-derived 9-11mer peptide]" recorded_measurement="1.0 h"
